Assay Comment: Half life in B6C3F1 mouse plasma at 5 mg/kg, ip after 16 hrs
Type: ADME, organism-based
Set-up: dose 5 mg/kg, route intraperitoneal
Measure Name: half-life (h)

In [3]: df
Out[3]:
                      smiles_representation  measure_name  measured_number
0  Nc1scc2c(C(=O)NC3CC3)nn(-c3ccc(F)cc3)c(=O)c12     half-life              2.2

###

Species on record: Homo sapiens
Assay Comment: Inhibition of heparin-induced tau K18PL mutant aggregation assessed as soluble tau fragment level at 50 uM after 5 days by SDS-PAGE analysis
Measure Name: inhibition (%)

>>> print(df.to_string())
                                    compound  measurement_unit  measured_number
 0  Nc1scc2c(C(=O)NC3CC3)nn(-c3ccc(F)cc3)c(=O)c12                 %               78
 1           Cc1nn(C2CCCCC2)c(=O)c2c(N)scc12                 %               86
 2  Nc1scc2c(C(=O)O)nn(-c3ccc(OC(F)(F)F)cc3)c(=O)c12                 %               71
 3                  Cc1nn(C)c(=O)c2c(N)scc12                 %               76
 4          Cc1nn(-c2ccccn2)c(=O)c2c(N)scc12                 %               78
 5  CCOC(=O)c1nn(-c2ccc(C(C)C)cc2)c(=O)c2c(N)scc12                 %               17
 6   Nc1scc2c(C(=O)O)nn(-c3ccccc3Cl)c(=O)c12                 %               64
 7  Nc1scc2c(C(=O)O)nn(-c3ccc(C(F)(F)F)cc3)c(=O)c12                 %               83
 8          Cc1nn(-c2cccnc2)c(=O)c2c(N)scc12                 %               84
 9  CCOC(=O)c1nn(-c2ccccc2Cl)c(=O)c2c(N)scc12                 %               71
10  CC(C)NC(=O)c1nn(-c2ccc(OC(F)(F)F)cc2)c(=O)c2c(N)scc12                 %               42
11  CCOC(=O)c1nn(-c2ccc(Cl)cc2)c(=O)c2c(N)sc(Br)c12                 %               62
12  CC(C)NC(=O)c1nn(-c2ccc(O)cc2)c(=O)c2c(N)scc12                 %               84
13              Cc1nn(C(C)C)c(=O)c2c(N)scc12                 %               17
14  CCOC(=O)c1nn(-c2cccc(Cl)c2)c(=O)c2c(N)scc12                 %               73
15  CCOC(=O)c1nn(-c2ccc(Cl)cc2)c(=O)c2c(NC)scc12                 %               51
16  CCOC(=O)c1nn(-c2ccc(Cl)cc2)c(=O)c2c1C(O)NC2=O (centres undefined)                 %               15
17  Nc1scc2c(C(=O)O)nn(-c3ccc(F)cc3)c(=O)c12                 %               83
18                  Cc1n[nH]c(=O)c2c(N)scc12                 %               81
19      Cc1nn(-c2ccc(Cl)cc2)c(=O)c2c(N)scc12                 %               70
20          Cc1nn(Cc2ccccc2)c(=O)c2c(N)scc12                 %               73
21  CC(C)NC(=O)c1nn(-c2ccc(Cl)cc2)c(=O)c2c1CSC2=O                 %               85
22  CCOC(=O)c1nn(-c2ccc(Cl)cc2)c(=O)c2c(N)sc(Cl)c12                 %               65
23  CC(C)NC(=O)c1nn(-c2ccc(F)cc2)c(=O)c2c(N)scc12                 %               77
